test system: MS2 coat protein; assay: apparent KD of MS2 coat protein; designed switch direction (-1 OFF switch, 1 ON switch): -1; higher = weaker reporter binding; conditions: input ligand: FMN 200 uM
Here the recorded apparent KD of MS2 coat protein is given for each entry.
Enter your answer as a number in µM; do not include the unit.

Illustrative cases are given below, each with its answer.
UUCUUUACACGAGGAUAUCAUACAUGAGGAUCACCCAUGUUGCUUUGUCUGUUUUUAUGUAUUAUUGAGAAGGCGUUUUUCUUU [JR_ExcNG2_Sub076] (Eterna round: R96, puzzle: Exclusion NG 2)
0.0219
AUUUAAUUUAAUAAGAUCACAUGAGGAUCACCCAUGUUAUAAUAGGAUAUCAGCUCGAAUAGAGCUGAGAAGGAUUAUAACAUG [ExNG3/9-A4] (Eterna round: R96, puzzle: Exclusion NG 3)
0.0172
AAUACAAGCUAUUGAUCCCACAUGAGGAUCACCCAUGUAGCUGGCGGUGACACCUCCAUUACGAUAGCUCGUCUUAU [Sensor-V1 #56] (Eterna round: R97, puzzle: Sensor, turn-off variant 1)
0.796
AAUCUGCCGUAGGAUAUCUGAAGUUUAUAUAUAAGAGAAGGACGGACAUGAGGAUCACCCAUGUACGAUCCUGC [EX6 B.24] (Eterna round: R97, puzzle: Exclusion 6)
0.0199

Kindly review the next sequence as well.
Recorded apparent KD of MS2 coat protein for GAGCAGUGAGGAUAUACAUGAGGAUCACCCAUGUAAUGGUAGUCGGGAUUAAUUUGGUGUAGAAGGCGCUUAUU [JR_Ex3_Sub021] (Eterna round: R97, puzzle: Exclusion 3) , please?
0.064

Provenance of the data: the supplement of paper PMC9170038
